# tested.target: Prostaglandin G/H synthase 1 (Ovis aries, UniProt P05979)
# Sequence (P05979 whole entry): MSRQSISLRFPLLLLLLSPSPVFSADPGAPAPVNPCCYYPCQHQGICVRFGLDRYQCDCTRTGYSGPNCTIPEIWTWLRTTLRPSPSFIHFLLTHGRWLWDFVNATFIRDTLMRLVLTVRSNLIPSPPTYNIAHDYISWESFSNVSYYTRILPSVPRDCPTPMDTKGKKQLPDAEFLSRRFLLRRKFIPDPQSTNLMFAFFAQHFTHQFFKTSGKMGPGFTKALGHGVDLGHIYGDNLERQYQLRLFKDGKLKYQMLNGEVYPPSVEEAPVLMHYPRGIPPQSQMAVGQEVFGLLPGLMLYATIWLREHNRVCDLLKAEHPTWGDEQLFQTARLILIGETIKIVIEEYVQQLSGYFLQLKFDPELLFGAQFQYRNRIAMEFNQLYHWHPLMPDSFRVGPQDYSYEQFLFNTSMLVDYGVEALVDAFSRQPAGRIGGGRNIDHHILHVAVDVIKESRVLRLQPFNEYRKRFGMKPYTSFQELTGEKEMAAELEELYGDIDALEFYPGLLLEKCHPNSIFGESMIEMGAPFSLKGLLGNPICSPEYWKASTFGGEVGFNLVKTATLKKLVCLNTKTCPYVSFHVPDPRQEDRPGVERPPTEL
property.name: IC50 (µM)
Write down the numeric answer in µM and omit the unit.

Solved cases below.
COc1ccc(-c2nn(-c3ccccc3)cc2/C=C2\SC(=S)N(NC(=O)c3sc4ccccc4c3Cl)C2=O)cc1 : 7.6
O=C(NN1C(=O)/C(=C/c2cn(-c3ccccc3)nc2-c2ccccc2)SC1=S)c1cc2ccccc2o1 : 12.4
O=C(NN1C(=O)/C(=C/c2cn(-c3ccccc3)nc2-c2ccc(Br)cc2)SC1=S)c1sc2ccccc2c1Cl : 12.4
COc1cc(/C=C2\SC(=S)N(NC(=O)c3sc4ccccc4c3Cl)C2=O)ccc1O : 10.4
O=C(NN1C(=O)/C(=C/c2ccccc2)SC1=S)c1sc2ccccc2c1Cl : 10.6

Task item: # IC50 lookup, item COc1ccc(-c2nn(-c3ccccc3)cc2/C=C2\SC(=S)N(NC(=O)c3cc4ccccc4o3)C2=O)cc1
Reply: 8.7

Task item: One more compound: O=C(NN1C(=O)/C(=C/c2ccc(Cl)cc2)SC1=S)c1sc2ccccc2c1Cl
Reply: 4.9

Task item: One more compound: O=C(NN1C(=O)CSC1=S)c1sc2ccccc2c1Cl
Reply: 8.7

====

Property: IC50; scope: individual molecules
# tested.target: Prostaglandin G/H synthase 2 (Ovis aries, UniProt P79208)
# Sequence (P79208 whole entry): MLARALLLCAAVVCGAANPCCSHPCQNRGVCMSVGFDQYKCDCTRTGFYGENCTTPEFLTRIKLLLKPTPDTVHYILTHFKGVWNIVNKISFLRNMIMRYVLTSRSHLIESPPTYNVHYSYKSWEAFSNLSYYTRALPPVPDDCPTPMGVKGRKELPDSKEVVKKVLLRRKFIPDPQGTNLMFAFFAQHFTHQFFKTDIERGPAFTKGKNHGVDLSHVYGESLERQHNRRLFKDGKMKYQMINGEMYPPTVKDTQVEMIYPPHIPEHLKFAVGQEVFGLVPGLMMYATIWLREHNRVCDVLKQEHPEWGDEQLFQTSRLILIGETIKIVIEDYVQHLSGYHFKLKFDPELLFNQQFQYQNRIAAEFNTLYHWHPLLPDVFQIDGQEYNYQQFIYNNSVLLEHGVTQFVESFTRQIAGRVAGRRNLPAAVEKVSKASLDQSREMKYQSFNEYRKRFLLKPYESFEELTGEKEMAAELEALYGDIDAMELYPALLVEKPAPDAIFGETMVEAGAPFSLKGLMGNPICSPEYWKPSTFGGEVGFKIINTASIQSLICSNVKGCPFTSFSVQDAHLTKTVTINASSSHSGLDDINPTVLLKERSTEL
Note: state the figure and append the unit.

COc1ccc(-c2nn(-c3ccccc3)cc2/C=C2\SC(=S)N(NC(=O)c3sc4ccccc4c3Cl)C2=O)cc1 : 2.61 µM
O=C1Nc2ccccc2/C1=C1\SC(=S)N(NC(=O)c2sc3ccccc3c2Cl)C1=O : 1.56 µM
O=C(NN1C(=O)/C(=C/c2cn(-c3ccccc3)nc2-c2ccc(Br)cc2)SC1=S)c1sc2ccccc2c1Cl : 4.88 µM
O=C(NN1C(=O)/C(=C/c2cn(-c3ccccc3)nc2-c2ccccc2)SC1=S)c1sc2ccccc2c1Cl : 1.49 µM

Here is the next item to consider.
Task item: # IC50 lookup, item O=C(NN1C(=O)/C(=C/c2cn(-c3ccccc3)nc2-c2ccccc2)SC1=S)c1cc2ccccc2o1
Reply: 4.81 µM

====

Protein target, amino acids: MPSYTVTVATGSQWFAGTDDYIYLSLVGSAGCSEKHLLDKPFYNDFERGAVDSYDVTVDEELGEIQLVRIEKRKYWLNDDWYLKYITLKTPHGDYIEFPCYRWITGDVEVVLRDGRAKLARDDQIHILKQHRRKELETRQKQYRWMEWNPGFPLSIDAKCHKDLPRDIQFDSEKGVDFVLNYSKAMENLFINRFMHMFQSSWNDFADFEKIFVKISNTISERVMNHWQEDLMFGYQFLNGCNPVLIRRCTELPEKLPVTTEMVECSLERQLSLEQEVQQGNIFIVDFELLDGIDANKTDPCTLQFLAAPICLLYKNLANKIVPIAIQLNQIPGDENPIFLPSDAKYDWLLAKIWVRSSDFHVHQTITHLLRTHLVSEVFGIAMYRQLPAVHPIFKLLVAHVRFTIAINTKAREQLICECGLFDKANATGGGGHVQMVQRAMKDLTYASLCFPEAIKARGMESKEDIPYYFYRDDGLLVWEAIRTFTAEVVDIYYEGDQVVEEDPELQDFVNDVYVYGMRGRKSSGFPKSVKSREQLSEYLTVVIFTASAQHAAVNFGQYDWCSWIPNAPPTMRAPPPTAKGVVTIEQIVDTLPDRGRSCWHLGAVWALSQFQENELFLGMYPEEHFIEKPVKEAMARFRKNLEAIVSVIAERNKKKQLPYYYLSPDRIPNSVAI
property.name: IC50 (µM)
Write down the numeric answer in µM and omit the unit.

Solved cases below.
COc1ccc(-c2nn(-c3ccccc3)cc2/C=C2\SC(=S)N(NC(=O)c3cc4ccccc4o3)C2=O)cc1 : 6.91
O=C(NN1C(=O)CSC1=S)c1cc2ccccc2o1 : 5.92
O=C(NN1C(=O)/C(=C/c2cn(-c3ccccc3)nc2-c2ccccc2)SC1=S)c1cc2ccccc2o1 : 9.21
Cc1ccc(-c2cc(C(F)(F)F)nn2-c2ccc(S(N)(=O)=O)cc2)cc1 : 6.87
O=C(NN1C(=O)/C(=C/c2cn(-c3ccccc3)nc2-c2ccc(Br)cc2)SC1=S)c1sc2ccccc2c1Cl : 9.51

Here is the next item to consider.
Task item: # IC50 lookup, item O=C(NN1C(=O)/C(=C/c2cn(-c3ccccc3)nc2-c2ccccc2)SC1=S)c1sc2ccccc2c1Cl
Reply: 3.97
